# Species: Homo sapiens
# PROTOCOL_DESCRIPTION: Selectivity ratio of IC50 for human SGLT1 to IC50 for human SGLT2

[
  {
    "MOLECULE": "CC(=O)c1c(Cc2cccc([C@@H]3O[C@H](CO)[C@@H](O)[C@H](O)[C@H]3O)c2)cc2cccccc1-2",
    "RESULT_MODIFIER": ">",
    "Ratio IC50": 0.8
  },
  {
    "MOLECULE": "OC[C@H]1O[C@@H](c2cc(Cc3cc4cccccc-4c3)ccc2F)[C@H](O)[C@@H](O)[C@@H]1O",
    "RESULT_MODIFIER": "=",
    "Ratio IC50": 123
  },
  {
    "MOLECULE": "OC[C@H]1O[C@@H](c2cc(Cc3cc4cccccc-4c3)ccc2O)[C@H](O)[C@@H](O)[C@@H]1O [YM-543 FREE ACID]",
    "RESULT_MODIFIER": "=",
    "Ratio IC50": 280
  },
  {
    "MOLECULE": "COc1ccc([C@@H]2O[C@H](CO)[C@@H](O)[C@H](O)[C@H]2O)cc1Cc1cc2cccccc-2c1",
    "RESULT_MODIFIER": "=",
    "Ratio IC50": 35
  }
]

###

# System: Rattus norvegicus
# PROTOCOL_DESCRIPTION: Volume of distribution at steady state in Sprague-Dawley rat at 1 mg/kg, iv
# Format: ADME, organism-based
# Set-up: dose 1 mg/kg, route intravenous
# CONDITION_LABEL: in vivo

[
  {
    "COMPOUND": "OC[C@H]1O[C@@H](c2cc(Cc3cc4cccccc-4c3)ccc2O)[C@H](O)[C@@H](O)[C@@H]1O [YM-543 FREE ACID]",
    "Vdss": "3.36 L/kg"
  }
]

###

# Species: Homo sapiens
# PROTOCOL_DESCRIPTION: Selectivity ratio of IC50 for human SGLT1 to IC50 for human SGLT2
Is Ratio IC50 at least 600? Then 1.0. If not, 0.0.

[
  {
    "STRUCTURE_SMILES_STRING": "OC[C@H]1O[C@@H](c2cc(Cc3cc4cccccc-4c3)ccc2Cl)[C@H](O)[C@@H](O)[C@@H]1O",
    "GROUP_LABEL": 0.0
  },
  {
    "STRUCTURE_SMILES_STRING": "OC[C@H]1O[C@@H](c2cccc(Cc3ccc4cccc-4cc3)c2)[C@H](O)[C@@H](O)[C@@H]1O",
    "GROUP_LABEL": 0.0
  },
  {
    "STRUCTURE_SMILES_STRING": "OC[C@H]1O[C@@H](c2ccc(Cl)c(Cc3cc4cccccc-4c3)c2)[C@H](O)[C@@H](O)[C@@H]1O",
    "GROUP_LABEL": 0.0
  },
  {
    "STRUCTURE_SMILES_STRING": "COc1ccc(Cc2cc3cccccc-3c2)cc1[C@@H]1O[C@H](CO)[C@@H](O)[C@H](O)[C@H]1O",
    "GROUP_LABEL": 1.0
  }
]

###

# PROTOCOL_DESCRIPTION: Half life in Sprague-Dawley rat at 1 mg/kg, iv
# Format: ADME, organism-based
# Design: dose 1 mg/kg, route intravenous
# CONDITION_LABEL: in vivo
READOUT_TYPE: half-life (min)

[
  {
    "MOLECULE": "OC[C@H]1O[C@@H](c2cc(Cc3cc4cccccc-4c3)ccc2O)[C@H](O)[C@@H](O)[C@@H]1O [YM-543 FREE ACID]",
    "UOM": "min",
    "RECORDED_RESULT": 54
  }
]

###

# PROTOCOL_DESCRIPTION: Half life in Sprague-Dawley rat at 3 mg/kg, po
# Type: ADME, organism-based
# Design: dose 3 mg/kg, route oral
# CONDITION_LABEL: in vivo

[
  {
    "MOLECULE": "OC[C@H]1O[C@@H](c2cc(Cc3cc4cccccc-4c3)ccc2O)[C@H](O)[C@@H](O)[C@@H]1O [YM-543 FREE ACID]",
    "half-life [h]": 1.3
  }
]

###

Catalogue of molecules with associated log10 of IC50
# TARGET_ENTITY: Sodium/glucose cotransporter 2 (Homo sapiens, UniProt P31639)
# Sequence (P31639 whole entry): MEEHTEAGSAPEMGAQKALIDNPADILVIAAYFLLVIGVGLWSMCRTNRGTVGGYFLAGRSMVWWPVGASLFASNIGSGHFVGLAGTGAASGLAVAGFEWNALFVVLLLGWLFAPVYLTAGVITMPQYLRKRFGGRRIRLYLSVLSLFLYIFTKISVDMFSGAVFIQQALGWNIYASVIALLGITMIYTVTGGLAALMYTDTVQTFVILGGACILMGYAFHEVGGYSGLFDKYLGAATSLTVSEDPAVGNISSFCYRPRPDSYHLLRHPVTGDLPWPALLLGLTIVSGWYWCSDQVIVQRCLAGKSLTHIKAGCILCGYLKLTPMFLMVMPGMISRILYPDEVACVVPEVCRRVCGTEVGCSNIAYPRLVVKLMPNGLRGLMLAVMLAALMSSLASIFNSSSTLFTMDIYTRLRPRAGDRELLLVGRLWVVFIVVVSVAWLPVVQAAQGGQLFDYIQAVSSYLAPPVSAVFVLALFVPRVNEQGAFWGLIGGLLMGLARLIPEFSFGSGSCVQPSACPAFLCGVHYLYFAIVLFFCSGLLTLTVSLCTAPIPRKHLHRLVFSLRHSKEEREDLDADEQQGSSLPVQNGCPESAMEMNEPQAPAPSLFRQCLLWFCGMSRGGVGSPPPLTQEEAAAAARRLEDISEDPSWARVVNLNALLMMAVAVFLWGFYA
# PROTOCOL_DESCRIPTION: Inhibition of human SGLT2 expressed in CHO cells assessed as [14C]-methyl-alpha-D-glucopyranoside accumulation
READOUT_TYPE: log10 of IC50 (log10 of the value in nM)

[
  {
    "STRUCTURE_SMILES_STRING": "CCc1c(Cc2cccc([C@@H]3O[C@H](CO)[C@@H](O)[C@H](O)[C@H]3O)c2)cc2cccccc1-2",
    "log10 of IC50": 3.72
  },
  {
    "STRUCTURE_SMILES_STRING": "OC[C@H]1O[C@@H](c2ccc(F)c(Cc3cc4cccccc-4c3)c2)[C@H](O)[C@@H](O)[C@@H]1O",
    "log10 of IC50": 1.15
  },
  {
    "STRUCTURE_SMILES_STRING": "Cc1cc(Cc2cccc([C@@H]3O[C@H](CO)[C@@H](O)[C@H](O)[C@H]3O)c2)c2cccccc1-2",
    "log10 of IC50": 4.64
  },
  {
    "STRUCTURE_SMILES_STRING": "OC[C@H]1O[C@@H](c2cc(Cc3cc4cccccc-4c3)ccc2Cl)[C@H](O)[C@@H](O)[C@@H]1O",
    "log10 of IC50": 1.85
  },
  {
    "STRUCTURE_SMILES_STRING": "OC[C@H]1O[C@@H](c2cc(Cc3cc4cccccc-4c3)ccc2F)[C@H](O)[C@@H](O)[C@@H]1O",
    "log10 of IC50": 1.59
  },
  {
    "STRUCTURE_SMILES_STRING": "CC(=O)c1c(Cc2cccc([C@@H]3O[C@H](CO)[C@@H](O)[C@H](O)[C@H]3O)c2)cc2cccccc1-2",
    "log10 of IC50": 4.08
  },
  {
    "STRUCTURE_SMILES_STRING": "COc1ccc([C@@H]2O[C@H](CO)[C@@H](O)[C@H](O)[C@H]2O)cc1Cc1cc2cccccc-2c1",
    "log10 of IC50": 1.23
  },
  {
    "STRUCTURE_SMILES_STRING": "OC[C@H]1O[C@@H](c2cccc(Cc3cc4cccccc-4c3Cc3ccccc3)c2)[C@H](O)[C@@H](O)[C@@H]1O",
    "log10 of IC50": 2.99
  },
  {
    "STRUCTURE_SMILES_STRING": "OC[C@H]1O[C@@H](c2ccc(Cl)c(Cc3cc4cccccc-4c3)c2)[C@H](O)[C@@H](O)[C@@H]1O",
    "log10 of IC50": 0.90
  }
]

###

# PROTOCOL_DESCRIPTION: AUC (0 to infinity) in Sprague-Dawley rat at 1 mg/kg, iv
# Format: ADME, organism-based
# Set-up: time infinity, dose 1 mg/kg, route intravenous
# CONDITION_LABEL: plasma

[
  {
    "COMPOUND": "OC[C@H]1O[C@@H](c2cc(Cc3cc4cccccc-4c3)ccc2O)[C@H](O)[C@@H](O)[C@@H]1O [YM-543 FREE ACID]",
    "AUC(0-inf), ng·h/mL": 403
  }
]
